test: Metabolic stability in rat hepatocytes; type: in vitro ADME; conditions: cryopreserved hepatocytes, 1×10^6 cells/mL, read-out: Rat T1/2
Measure: half-life at 1 μM (min)

• CC1(c2ccc(C#N)cc2F)Oc2cccc(C3CCN(Cc4nc5ccc(-c6nnn[nH]6)cc5n4C[C@@H]4CCO4)CC3)c2O1 (stereo partly shown) [Compound 16] = 480
• N#Cc1ccc(COc2cccc(C3CCN(Cc4nc5ccc(-c6nnn[nH]6)cc5n4Cc4cncs4)CC3)n2)c(F)c1 [Compound 11] = 48.7
• N#Cc1ccc(COc2cccc(C3CCN(Cc4nc5ccc(-c6nnn[nH]6)cc5n4C[C@@H]4CCO4)CC3)n2)c(F)c1 [Compound 8] = 71.5
• N#Cc1ccc(COc2cccc(C3CCN(Cc4nc5ccc(-c6nc(=O)[nH]o6)cc5n4Cc4cncs4)CC3)n2)c(F)c1 [Compound 13] = 30.1
